Listing of entries alongside the reported viability, T/C.
# System: 276233-004-R-J1-PDC complex spheroid viability
# Protocol text: Anticancer human tumor 276233-004-R-J1-PDC patient-derived colon adenocarcinoma cell line growth inhibition [GQUAD]
# Stated conditions: second compound 3.16 µM; first compound 0.316 µM; stronger effect = lower value
# unit: % | format: bare number

The cases that follow already have their viability, T/C on record.
# get_value(readout='viability, T/C', item= O=c1[nH]cc(F)c(=O)[nH]1 + Cc1[nH]c2ccc(F)cc2c1-c1nc2c3cccnc3c3ncccc3c2[nH]1 )
48.5

# get_value(readout='viability, T/C', item= CC(C)(O)C1CCC(Nc2ccc3ncc(-c4cccc(C(F)(F)F)c4)n3n2)CC1 (stereo unspecified) + Cc1cnc(CNC(=O)c2c(=O)c3ccc(N4CCCN(C)CC4)nc3n3c2sc2ccccc23)cn1 )
69.8

# get_value(readout='viability, T/C', item= Cc1cccc(N(C)C(=O)C2C(O)CCN2c2nc(C)cc(C(F)(F)F)c2C#N)c1 (stereo unspecified) + Cc1[nH]c2ccc(F)cc2c1-c1nc2c3cccnc3c3ncccc3c2[nH]1 )
61.6

# get_value(readout='viability, T/C', item= CCCS(=O)(=O)Nc1ccc(F)c(C(=O)c2c[nH]c3ncc(-c4ccc(Cl)cc4)cc23)c1F + CN(C)c1ccc(Nc2c3ccc(NC(=O)CCN4CCCC4)cc3nc3cc(NC(=O)CCN4CCCC4)ccc23)cc1 )
50.8

# get_value(readout='viability, T/C', item= CC(C)(O)C1CCC(Nc2ccc3ncc(-c4cccc(C(F)(F)F)c4)n3n2)CC1 (stereo unspecified) + Cc1[nH]c2ccc(F)cc2c1-c1nc2c3cccnc3c3ncccc3c2[nH]1 )
17.6

# get_value(readout='viability, T/C', item= CC1COCCN1c1cc(C2(S(C)(=N)=O)CC2)nc(-c2ccnc3[nH]ccc23)n1 (stereo unspecified) + CN(C)c1ccc(Nc2c3ccc(NC(=O)CCN4CCCC4)cc3nc3cc(NC(=O)CCN4CCCC4)ccc23)cc1 )
63.1

# get_value(readout='viability, T/C', item= COc1cc(C2c3cc4c(cc3C(OC3OC5COC(C)OC5C(O)C3O)C3COC(=O)C23)OCO4)cc(OC)c1O (stereo unspecified) + CN(C)c1ccc(Nc2c3ccc(NC(=O)CCN4CCCC4)cc3nc3cc(NC(=O)CCN4CCCC4)ccc23)cc1 )
52.2

# get_value(readout='viability, T/C', item= CCc1c2c(nc3ccc(O)cc13)-c1cc3c(c(=O)n1C2)COC(=O)[C@]3(O)CC + Cc1[nH]c2ccc(F)cc2c1-c1nc2c3cccnc3c3ncccc3c2[nH]1 )
67.3

More entries:
# get_value(readout='viability, T/C', item= COc1cccc2c1C(=O)c1c(O)c3c(c(O)c1C2=O)CC(O)(C(=O)CO)CC3OC1CC(N)C(O)C(C)O1 (stereo unspecified) + Cc1[nH]c2ccc(F)cc2c1-c1nc2c3cccnc3c3ncccc3c2[nH]1 )
52.3

# get_value(readout='viability, T/C', item= CC(C)n1c(=O)n(C)c2cnc3cc(F)c(-c4ccc(OCCCN5CCCCC5)nc4)cc3c21 + Cc1cnc(CNC(=O)c2c(=O)c3ccc(N4CCCN(C)CC4)nc3n3c2sc2ccccc23)cn1 )
79.3

# get_value(readout='viability, T/C', item= C#Cc1c(F)ccc2cc(O)cc(-c3ncc4c(N5CC6CCC(C5)N6)nc(OCC56CCCN5CC(F)C6)nc4c3F)c12 (stereo unspecified) + CN(C)c1ccc(Nc2c3ccc(NC(=O)CCN4CCCC4)cc3nc3cc(NC(=O)CCN4CCCC4)ccc23)cc1 )
36.5

---

Listing of entries alongside the reported IC50.
# Test system: 276233-004-R-J1-PDC complex spheroid viability
# Protocol text: Anticancer human tumor 276233-004-R-J1-PDC cell line growth inhibition [GQUAD];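 also: spheroids exposed to drugs for seven days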
# Stated conditions: curve of first compound; second compound 1 µM
# unit: nM | format: bare number

# get_value(readout='IC50', item= CC1COCCN1c1cc(-c2ccnn2C)c2ccnc(-c3ccn[nH]3)c2n1 (stereo not given) + CN(C)c1ccc(Nc2c3ccc(NC(=O)CCN4CCCC4)cc3nc3cc(NC(=O)CCN4CCCC4)ccc23)cc1 )
109

More entries:
# get_value(readout='IC50', item= CC1COCCN1c1cc(C2(O)CC3CCC(C2)O3)c2cnn(-c3ccn[nH]3)c2n1 (stereo not given) + CN(C)c1ccc(Nc2c3ccc(NC(=O)CCN4CCCC4)cc3nc3cc(NC(=O)CCN4CCCC4)ccc23)cc1 )
555

---

Listing of entries alongside the reported viability, T/C.
# Test system: 276233-004-R-J1-PDC complex spheroid viability
# Protocol text: Anticancer human tumor 276233-004-R-J1-PDC cell line growth inhibition [GQUAD];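 also: spheroids exposed to drugs for seven days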;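 as to viability, T/C: 100% = DMSO vehicle control viability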
# Stated conditions: second compound 3.16 µM; first compound 0.0316 µM; stronger effect = lower value
# unit: % | format: bare number

# get_value(readout='viability, T/C', item= CCc1c2c(nc3ccc(O)cc13)-c1cc3c(c(=O)n1C2)COC(=O)[C@]3(O)CC + CN(C)c1ccc(Nc2c3ccc(NC(=O)CCN4CCCC4)cc3nc3cc(NC(=O)CCN4CCCC4)ccc23)cc1 )
70.8

# get_value(readout='viability, T/C', item= CC(C)(O)C1CCC(Nc2ccc3ncc(-c4cccc(C(F)(F)F)c4)n3n2)CC1 (stereo not drawn) + Cc1cnc(CNC(=O)c2c(=O)c3ccc(N4CCCN(C)CC4)nc3n3c2sc2ccccc23)cn1 )
79.9

# get_value(readout='viability, T/C', item= COc1cc(C2c3cc4c(cc3C(OC3OC5COC(C)OC5C(O)C3O)C3COC(=O)C23)OCO4)cc(OC)c1O (stereo not drawn) + Cc1cnc(CNC(=O)c2c(=O)c3ccc(N4CCCN(C)CC4)nc3n3c2sc2ccccc23)cn1 )
78.7

# get_value(readout='viability, T/C', item= Cc1cccc(N(C)C(=O)C2C(O)CCN2c2nc(C)cc(C(F)(F)F)c2C#N)c1 (stereo not drawn) + Cc1cnc(CNC(=O)c2c(=O)c3ccc(N4CCCN(C)CC4)nc3n3c2sc2ccccc23)cn1 )
65.7

# get_value(readout='viability, T/C', item= CC1COCCN1c1cc(C2(S(C)(=N)=O)CC2)nc(-c2ccnc3[nH]ccc23)n1 (stereo not drawn) + CN(C)c1ccc(Nc2c3ccc(NC(=O)CCN4CCCC4)cc3nc3cc(NC(=O)CCN4CCCC4)ccc23)cc1 )
58.4

More entries:
# get_value(readout='viability, T/C', item= O=c1[nH]cc(F)c(=O)[nH]1 + CN(C)c1ccc(Nc2c3ccc(NC(=O)CCN4CCCC4)cc3nc3cc(NC(=O)CCN4CCCC4)ccc23)cc1 )
59.3

# get_value(readout='viability, T/C', item= COc1ncnc(C2CC2)c1-c1ncc2cnn(Cc3ccc(-c4nc(C(F)(F)F)cn4C(C)C)cc3)c2n1 + Cc1[nH]c2ccc(F)cc2c1-c1nc2c3cccnc3c3ncccc3c2[nH]1 )
18.7

# get_value(readout='viability, T/C', item= O=C(c1cc(Cc2n[nH]c(=O)c3ccccc23)ccc1F)N1CCN(C(=O)C2CC2)CC1 + Cc1[nH]c2ccc(F)cc2c1-c1nc2c3cccnc3c3ncccc3c2[nH]1 )
51.5

---

# System: 276233-004-R-J1-PDC complex spheroid viability
# Protocol text: Anticancer human tumor 276233-004-R-J1-PDC cell line growth inhibition [GQUAD];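 also: spheroids exposed to drugs for seven days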
# Stated conditions: curve of first compound; second compound 1 µM
Recorded metric: IC50

Query the reported IC50 for 276233-004-R-J1-PDC complex spheroid viability; item: O=C(c1cc(Cc2n[nH]c(=O)c3ccccc23)ccc1F)N1CCN(C(=O)C2CC2)CC1 + Cc1[nH]c2ccc(F)cc2c1-c1nc2c3cccnc3c3ncccc3c2[nH]1
> 10 µM

Query the reported IC50 for 276233-004-R-J1-PDC complex spheroid viability; item: O=c1[nH]cc(F)c(=O)[nH]1 + Cc1cnc(CNC(=O)c2c(=O)c3ccc(N4CCCN(C)CC4)nc3n3c2sc2ccccc23)cn1
> 10 µM

Query the reported IC50 for 276233-004-R-J1-PDC complex spheroid viability; item: O=c1[nH]cc(F)c(=O)[nH]1 + CN(C)c1ccc(Nc2c3ccc(NC(=O)CCN4CCCC4)cc3nc3cc(NC(=O)CCN4CCCC4)ccc23)cc1
> 10 µM

Query the reported IC50 for 276233-004-R-J1-PDC complex spheroid viability; item: Cc1cccc(N(C)C(=O)C2C(O)CCN2c2nc(C)cc(C(F)(F)F)c2C#N)c1 (stereo unspecified) + Cc1cnc(CNC(=O)c2c(=O)c3ccc(N4CCCN(C)CC4)nc3n3c2sc2ccccc23)cn1
> 10 µM

Query the reported IC50 for 276233-004-R-J1-PDC complex spheroid viability; item: Cn1ncnc1[C@H]1c2n[nH]c(=O)c3cc(F)cc(c23)N[C@@H]1c1ccc(F)cc1 + Cc1[nH]c2ccc(F)cc2c1-c1nc2c3cccnc3c3ncccc3c2[nH]1
> 0.316 µM

// moving on: another record for IC50
Query the reported IC50 for 276233-004-R-J1-PDC complex spheroid viability; item: CC[C@@]1(O)C(=O)OCc2c1cc1n(c2=O)Cc2cc3c(CN(C)C)c(O)ccc3nc2-1 + Cc1[nH]c2ccc(F)cc2c1-c1nc2c3cccnc3c3ncccc3c2[nH]1
> 0.316 µM
